The following molecules are listed with their measured inhibition values.
molecular target: Mitogen-activated protein kinase kinase kinase 5 (Homo sapiens); experiment: blockers of MAP3K5 kinase activity – biochemical, AlphaScreen, primary screen (AID 1159602); settings: AlphaScreen MKK6 phosphorylation by ASK1, luminescence; at 7.44 µM; active compounds read high;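 also: 0% = median of compound wells and 100% = no enzyme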
Among all 22,000 compounds or so, about 220 (1%) were called active. The list comes from a sample in which actives are over-represented; it also holds close analogues and randomly drawn compounds.
Field format: number, assumed %, no unit text.

// known answers, use as guide
>  <molecule>
CCCNc1nc(-c2cccc(C(C)=O)c2)nc2nc[nH]c12

>  <measure unit>
%

>  <inhibition>
6.62

$$$$
>  <molecule>
FC(F)(F)c1cnc(Nc2ccc(N3CCOCC3)cc2)cc1-n1ncc2ccccc21

>  <measure unit>
%

>  <inhibition>
-0.62

$$$$
>  <molecule>
COc1cc2nc(Nc3cccc(N(C)C)c3)nc(Nc3cc(OC)c(OC)c(OC)c3)c2cc1OC

>  <measure unit>
%

>  <inhibition>
36.7

$$$$
>  <molecule>
CCCNc1nc(-c2ccc(C(=O)N3CCN(C)CC3)cc2)nc2c1ncn2C(C)C

>  <measure unit>
%

>  <inhibition>
-4.93

$$$$
>  <molecule>
COc1ccc(CNc2nc(-c3cccc(OC(F)(F)F)c3)nc3c2ncn3C(C)C)cc1

>  <measure unit>
%

>  <inhibition>
-11.1

$$$$

# input molecule: `CC(C)n1cnc2c(Nc3ccc(N4CCOCC4)cc3)nc(Nc3ccncc3)nc21` ; wanted: its inhibition
4.78

# input molecule: CCN(CC)C(=O)C1CCCN(c2nc3ncnc(NCCN4CCOCC4)c3[nH]2)C1 (stereo not given) ; wanted: its inhibition
1.62

# input molecule: `O=C1CCCN1CCCNc1cc(NCc2cccnc2)ncn1` ; wanted: its inhibition
2.26

# input molecule: `COc1cc2nc(Nc3ccc4ncccc4c3)nc(Nc3ccc(NC(C)=O)cc3)c2cc1OC` ; wanted: its inhibition
35.6

# input molecule: `Cc1cc(NCCO)nc(Nc2nccc3ccccc23)n1` ; wanted: its inhibition
-10.4

====

target: Mitogen-activated protein kinase kinase kinase 5 (Homo sapiens) (UniProt Q99683); test: blockers of MAP3K5 kinase activity – biochemical, AlphaScreen, primary screen (AID 1159602); details: AlphaScreen MKK6 phosphorylation by ASK1, luminescence; at 7.44 µM;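 also: 0% = median of compound wells and 100% = no enzyme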
Sequence (Q99683 whole entry, looked up): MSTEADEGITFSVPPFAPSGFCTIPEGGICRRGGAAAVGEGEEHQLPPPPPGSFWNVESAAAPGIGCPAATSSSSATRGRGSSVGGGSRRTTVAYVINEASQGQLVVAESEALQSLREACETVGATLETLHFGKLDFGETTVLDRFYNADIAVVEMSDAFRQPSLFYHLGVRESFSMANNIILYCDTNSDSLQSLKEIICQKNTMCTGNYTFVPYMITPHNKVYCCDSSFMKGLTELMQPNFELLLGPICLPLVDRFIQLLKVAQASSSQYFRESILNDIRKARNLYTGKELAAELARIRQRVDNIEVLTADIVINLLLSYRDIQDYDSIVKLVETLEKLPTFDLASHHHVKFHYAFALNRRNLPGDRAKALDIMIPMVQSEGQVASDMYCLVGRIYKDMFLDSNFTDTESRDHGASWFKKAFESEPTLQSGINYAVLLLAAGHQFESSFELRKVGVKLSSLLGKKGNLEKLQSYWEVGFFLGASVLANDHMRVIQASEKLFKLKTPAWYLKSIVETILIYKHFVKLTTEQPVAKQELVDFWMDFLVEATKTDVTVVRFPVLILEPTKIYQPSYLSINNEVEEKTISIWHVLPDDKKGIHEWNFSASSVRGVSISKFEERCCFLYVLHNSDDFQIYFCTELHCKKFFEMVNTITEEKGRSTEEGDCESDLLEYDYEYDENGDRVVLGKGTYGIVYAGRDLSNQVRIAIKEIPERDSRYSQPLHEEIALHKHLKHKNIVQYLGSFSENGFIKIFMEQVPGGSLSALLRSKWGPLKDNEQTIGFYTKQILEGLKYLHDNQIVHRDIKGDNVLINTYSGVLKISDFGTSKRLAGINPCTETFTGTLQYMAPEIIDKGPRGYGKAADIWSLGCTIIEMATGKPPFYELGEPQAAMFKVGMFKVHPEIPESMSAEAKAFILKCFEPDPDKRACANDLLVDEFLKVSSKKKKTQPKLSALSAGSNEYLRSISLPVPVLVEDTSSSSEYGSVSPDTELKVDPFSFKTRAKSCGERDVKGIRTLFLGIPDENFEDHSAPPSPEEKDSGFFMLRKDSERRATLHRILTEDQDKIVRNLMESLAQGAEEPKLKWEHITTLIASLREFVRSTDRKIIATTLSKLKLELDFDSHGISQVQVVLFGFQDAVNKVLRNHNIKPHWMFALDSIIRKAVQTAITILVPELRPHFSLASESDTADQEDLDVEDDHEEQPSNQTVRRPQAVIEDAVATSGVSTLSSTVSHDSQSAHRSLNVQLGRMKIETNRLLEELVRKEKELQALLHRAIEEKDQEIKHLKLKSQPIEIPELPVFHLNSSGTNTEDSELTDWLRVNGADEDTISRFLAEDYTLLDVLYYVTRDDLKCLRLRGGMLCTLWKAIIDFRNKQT
The whole screen tested about 22,000 compounds, of which about 220 (1%) were called active. Cut-off read from the data, not from the text of the source: active = inhibition above about 35%; inactive = the rest. Shown is part of a subset that was picked to be rich in actives.
One label from this list, please: active, inactive

Known results for compounds:
>  <compound>
Oc1ccc(CCNc2nc(Nc3ccccn3)nc3nc[nH]c23)cc1

>  <label>
inactive

$$$$
>  <compound>
COc1ccc(CCNC(=O)c2ccnc(-c3ccc(C(=O)NC4CC4)cc3)c2)cc1

>  <label>
inactive

$$$$
>  <compound>
O=C1CCCN1CCCNc1nc(N2CCN(Cc3ccc4c(c3)OCO4)CC2)nc2c1ncn2-c1ccccc1

>  <label>
inactive

$$$$
>  <compound>
Cn1c(C2COc3ccccc3O2)nc2ccc(-c3cn[nH]c3)cc21 (stereo not given)

>  <label>
inactive

$$$$
>  <compound>
COc1ccc(CCNc2cc(NCc3cccnc3)nc(N)n2)cc1

>  <label>
inactive

$$$$

Just curious, what result did `FC(F)(F)c1cccc(CNc2nc(N3CCOCC3)nc3c2ncn3-c2ccsc2)c1` get here?
inactive

Just curious, what result did `Cc1cccc(CC(=O)Nc2cnn(-c3cccc(-c4nn[nH]n4)c3)c2)c1` get here?
inactive

Just curious, what result did `CC(C)n1c(Nc2ccccc2)nc2c(NCc3cccc(C(F)(F)F)c3)ncnc21` get here?
inactive

Just curious, what result did `c1nc(Nc2ccc(N3CCOCC3)cc2)cc(N2CCOCC2)n1` get here?
inactive

Just curious, what result did c1ccc2c(c1)OCC(c1cnc3ccc(-c4cn[nH]c4)cc3n1)O2 (stereo not given) get here?
inactive
